Below is a list of entries, each paired with its recorded pest or weed control at 3.125 µg/mL value.
System: cucumber downy mildew (Pseudoperonospora cubensis)
protocol: whole plant or invertebrate
Type: in vivo
setup_conditions: Pseudoperonospora cubensis, 168 h, read-out: Protectant activity (%) against cucumber downy mildew in vivo
Number in %, nothing else.

Query string: Request body: readout pest or weed control at 3.125 µg/mL, system cucumber downy mildew (Pseudoperonospora cubensis), query Nc1c(Cl)cc([N+](=O)[O-])cc1Cl [intermediate C] . Return the value.
Result string: 0

Query string: Try this compound too: c1ccc(Nc2ccccc2)cc1
Result string: 0

Query string: Try this compound too: Cc1cc([N+](=O)[O-])cc([N+](=O)[O-])c1Nc1c(Cl)cc(Cl)cc1Cl
Result string: 0

Query string: Try this compound too: Cc1c(Cl)c([N+](=O)[O-])cc([N+](=O)[O-])c1Cl [intermediate B]
Result string: 0

Query string: Try this compound too: COc1ccc(C(=CC(=O)N2CCOCC2)c2ccc(Cl)cc2)cc1OC
Result string: 35

Query string: Try this compound too: O=[N+]([O-])c1cc(C(F)(F)F)c(Cl)c([N+](=O)[O-])c1Nc1ncc(C(F)(F)F)cc1Cl
Result string: 40
